biological target: BACE1 (HTRF long substrate and FRET short substrate assays of Example 9D); test: cell-based or functional assay
binders and their reported EC50, HTRF long substrate

Incoming: Record request: EC50, HTRF long substrate value, item 5571 (antibody, V domains shown, anti-BACE1 IgG) VH: QVQLVQSGAEVKKPGSSVKVSCKASGGTFSSYAISWVRQAPGQGLEWMGNIIPIFGTANYAQKFQGRVTITADESTSTAYMELSSLRSEDTAVYYCARSGGTKYGMLDVWGQGTVVTVSS VL: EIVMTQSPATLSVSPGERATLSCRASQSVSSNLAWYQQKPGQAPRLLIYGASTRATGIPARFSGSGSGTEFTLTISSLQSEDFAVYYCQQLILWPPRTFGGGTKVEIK
Outgoing: 5.06 nM

Alright, here's another binder for you.
Incoming: Record request: EC50, HTRF long substrate value, item 5536 (antibody, V domains shown, anti-BACE1 IgG) VH: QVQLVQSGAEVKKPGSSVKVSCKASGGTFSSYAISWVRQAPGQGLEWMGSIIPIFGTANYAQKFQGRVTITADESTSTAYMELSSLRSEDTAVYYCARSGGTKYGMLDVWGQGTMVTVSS VL: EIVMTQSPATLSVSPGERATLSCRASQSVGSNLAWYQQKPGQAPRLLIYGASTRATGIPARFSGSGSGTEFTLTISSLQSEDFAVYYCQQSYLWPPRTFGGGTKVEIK
Outgoing: 0.578 nM
